Origin of measurements: PubChem BioAssay AID1918935

# System: 324938-238-R-J1-PDC complex spheroid viability
# METHOD_DESCRIPTION: Anticancer human tumor 324938-238-R-J1-PDC patient-derived bladder carcinoma cell line growth inhibition; active means viability on the fitted dose curve at most 10% of control; inactive means the rest
# EXPERIMENTAL_CONTEXT: second compound 3.16 µM; first compound 1 µM
Pick from t for active, f for inactive when you respond.

Outcome logged for CC1(C)CCC(CN2CCN(c3ccc(C(=O)NS(=O)(=O)c4ccc(NCC5CCOCC5)c([N+](=O)[O-])c4)c(Oc4cnc5[nH]ccc5c4)c3)CC2)=C(c2ccc(Cl)cc2)C1 + NC1CCC(NC2CC2c2ccccc2)CC1 in this assay: f

Tell me the recorded outcome of this test for CC1COCCN1c1cc(C2(S(C)(=N)=O)CC2)nc(-c2ccnc3[nH]ccc23)n1 (centres undefined) + NC1CC1c1ccc(-c2cccc(O)c2)cc1 . f

Which outcome did this test record for the molecule CC1COCCN1c1cc(C2(S(C)(=N)=O)CC2)nc(-c2ccnc3[nH]ccc23)n1 (centres undefined) + NC1CCC(NC2CC2c2ccccc2)CC1 ? f

Test call for this molecule, please: O=C(c1cc(Cc2n[nH]c(=O)c3ccccc23)ccc1F)N1CCN(C(=O)C2CC2)CC1 + NC1CC1c1ccc(-c2cccc(O)c2)cc1 f

Name the outcome recorded for CC1(C)CCC(CN2CCN(c3ccc(C(=O)NS(=O)(=O)c4ccc(NCC5CCOCC5)c([N+](=O)[O-])c4)c(Oc4cnc5[nH]ccc5c4)c3)CC2)=C(c2ccc(Cl)cc2)C1 + NC1CC1c1ccc(-c2cccc(O)c2)cc1 in the assay. f

Called result for CC(C)c1c(-c2ccccc2)nc2c(C#N)c[nH]n2c1=O + NC1CCC(NC2CC2c2ccccc2)CC1 f

How did this test come out for COc1ccc([C@@H](O)c2cc(-c3ncnc4cc(N5CCOCC5)ccc34)c(F)cc2Cl)nn1 + NC1CC1c1ccc(-c2cccc(O)c2)cc1 ? f

Look up the recorded call for CC(C)c1c(-c2ccccc2)nc2c(C#N)c[nH]n2c1=O + NC1CC1c1ccc(-c2cccc(O)c2)cc1 in this test. f

Give the logged outcome of this assay for the following molecule: COc1cc(Nc2ncc3c(n2)-c2ccc(Cl)cc2C(c2c(F)cccc2OC)=NC3)ccc1C(=O)O + NC1CC1c1ccc(-c2cccc(O)c2)cc1 f

GET /call?item= O=C(C=Cn1cnc(-c2cc(C(F)(F)F)cc(C(F)(F)F)c2)n1)NNc1cnccn1 + NC1CC1c1ccc(-c2cccc(O)c2)cc1 returns the recorded outcome of this test. t

Assay result, entry Nc1ncn(C2CC(O)C(CO)O2)c(=O)n1 (centres undefined) + NC1CC1c1ccc(-c2cccc(O)c2)cc1 — outcome? f

Hello, I am checking results. What call was entered for Nc1ncn(C2CC(O)C(CO)O2)c(=O)n1 (centres undefined) + NC1CCC(NC2CC2c2ccccc2)CC1 ? f

Given O=C(C=Cn1cnc(-c2cc(C(F)(F)F)cc(C(F)(F)F)c2)n1)NNc1cnccn1 + NC1CCC(NC2CC2c2ccccc2)CC1 , state the outcome it received in this test. t

// param item: CC1COCCN1c1cc(-c2ccnn2C)c2ccnc(-c3ccn[nH]3)c2n1 (centres undefined) + NC1CCC(NC2CC2c2ccccc2)CC1 ; yields the recorded call f

* * *

So I've got a bunch of compounds here, and I need their viability, T/C values.
# Test system: 324938-238-R-J1-PDC complex spheroid viability
# METHOD_DESCRIPTION: Anticancer human tumor 324938-238-R-J1-PDC cell line growth inhibition;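 further: spheroids also contain HUVEC and human MSCs and agents combined with iadademstat; spheroids exposed to agents for 7 days before readout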
# EXPERIMENTAL_CONTEXT: second compound 0.316 µM; first compound 0.949 µM; active compounds read low
Report the figure in % without appending any unit label.

Record summary for COc1cc(C2c3cc4c(cc3C(OC3OC5COC(C)OC5C(O)C3O)C3COC(=O)C23)OCO4)cc(OC)c1O (stereo not given) + NC1CCC(NC2CC2c2ccccc2)CC1 : reported viability, T/C = 19

Record summary for NS(=O)(=O)OCC1CC(n2ccc3c(NC4CCc5ccccc54)ncnc32)CC1O (stereo not given) + NC1CCC(NC2CC2c2ccccc2)CC1 : reported viability, T/C = 14.3

Lookup result for NS(=O)(=O)OCC1CC(n2ccc3c(NC4CCc5ccccc54)ncnc32)CC1O (stereo not given) + NC1CC1c1ccc(-c2cccc(O)c2)cc1 ; measured viability, T/C: 12.5

Documented viability, T/C of COc1cc(C2c3cc4c(cc3C(OC3OC5COC(C)OC5C(O)C3O)C3COC(=O)C23)OCO4)cc(OC)c1O (stereo not given) + NC1CC1c1ccc(-c2cccc(O)c2)cc1 : 17.6

Measured viability, T/C, O=C(C=Cc1cccc(S(=O)(=O)Nc2ccccc2)c1)NO + NC1CC1c1ccc(-c2cccc(O)c2)cc1 : 21.9

Nc1ccccc1NC(=O)c1ccc(CNC(=O)OCc2cccnc2)cc1 + NC1CCC(NC2CC2c2ccccc2)CC1 has a reported viability, T/C of 34.6

Nc1ccccc1NC(=O)c1ccc(CNC(=O)OCc2cccnc2)cc1 + NC1CC1c1ccc(-c2cccc(O)c2)cc1 yielded viability, T/C of 35.9

Lab note: O=C(C=Cc1cccc(S(=O)(=O)Nc2ccccc2)c1)NO + NC1CCC(NC2CC2c2ccccc2)CC1 gave viability, T/C of 25.9

The compound listed as CCN(c1cc(-c2ccc(CN3CCOCC3)cc2)cc(C(=O)NCc2c(C)cc(C)[nH]c2=O)c1C)C1CCOCC1 + NC1CC1c1ccc(-c2cccc(O)c2)cc1 has a reported viability, T/C of 85.1

The recorded viability, T/C for entry CCN(c1cc(-c2ccc(CN3CCOCC3)cc2)cc(C(=O)NCc2c(C)cc(C)[nH]c2=O)c1C)C1CCOCC1 + NC1CCC(NC2CC2c2ccccc2)CC1 equals 80.4

* * *

# Test system: 324938-238-R-J1-PDC complex spheroid viability
# METHOD_DESCRIPTION: Anticancer human tumor 324938-238-R-J1-PDC cell line growth inhibition;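 further: spheroids also contain HUVEC and human MSCs and agents combined with iadademstat; spheroids exposed to agents for 7 days before readout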
# EXPERIMENTAL_CONTEXT: second compound 10 µM; first compound 0.001 µM; active compounds read low
# Description: Multicellular complex tumor spheroid response to LSD1 Inhibitor Iadademstat in combination with a variety of drugs and investigational agents in selected tumor cell lines The current study was undertaken to assess response to LSD1 inhibitors in combination with standard-of-care drugs and investigational agents in solid tumor complex spheroid models as well as in the K-562 leukemia. […] Compounds. […] If the clinical Cmax for an agent had not been determined, the highest concentration tested was 10 microM. […]
REPORTED_METRIC: viability, T/C

Just so you know, measured viability, T/C for CC[C@@]1(O)C(=O)OCc2c1cc1n(c2=O)Cc2cc3c(CN(C)C)c(O)ccc3nc2-1 + NC1CCC(NC2CC2c2ccccc2)CC1 came out at 53.7%

GET /value?item= Cn1ncnc1C1c2n[nH]c(=O)c3cc(F)cc(c23)NC1c1ccc(F)cc1 (centres undefined) + NC1CCC(NC2CC2c2ccccc2)CC1 &field=viability, T/C returns 72.7%

Briefly, viability, T/C measured for Cn1ncnc1C1c2n[nH]c(=O)c3cc(F)cc(c23)NC1c1ccc(F)cc1 (centres undefined) + NC1CC1c1ccc(-c2cccc(O)c2)cc1 : 68%

// viability, T/C lookup, compound = CC(C)CC(NC(=O)C(Cc1ccccc1)NC(=O)c1cnccn1)B(O)O (centres undefined) + NC1CC1c1ccc(-c2cccc(O)c2)cc1 , result: 4.57%

* * *

# Tested on: 324938-238-R-J1-PDC complex spheroid viability
# METHOD_DESCRIPTION: Anticancer human tumor 324938-238-R-J1-PDC cell line growth inhibition; active = viability on the fitted dose curve at most 10% of control; inactive = the rest;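 further: spheroids also contain HUVEC and human MSCs and agents combined with iadademstat; spheroids exposed to agents for 7 days before readout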
# EXPERIMENTAL_CONTEXT: second compound 0.316 µM; first compound 0.1 µM
Please answer using one outcome listed in active, inactive

What outcome does the record of this test show for COc1ccc([C@@H](O)c2cc(-c3ncnc4cc(N5CCOCC5)ccc34)c(F)cc2Cl)nn1 + NC1CC1c1ccc(-c2cccc(O)c2)cc1 ? inactive

State the result this test recorded for CC1COCCN1c1cc(C2(S(C)(=N)=O)CC2)nc(-c2ccnc3[nH]ccc23)n1 (configuration not stated) + NC1CC1c1ccc(-c2cccc(O)c2)cc1 . inactive

Tell me the assay call for CC(C)c1c(-c2ccccc2)nc2c(C#N)c[nH]n2c1=O + NC1CCC(NC2CC2c2ccccc2)CC1 please. inactive

Fill in: this test's call for CC1COCCN1c1cc(-c2ccnn2C)c2ccnc(-c3ccn[nH]3)c2n1 (configuration not stated) + NC1CCC(NC2CC2c2ccccc2)CC1 is ___ inactive

Returns: the outcome recorded for CC[C@@]1(O)C(=O)OCc2c1cc1n(c2=O)Cc2cc3c(CN(C)C)c(O)ccc3nc2-1 + NC1CCC(NC2CC2c2ccccc2)CC1 in this assay. active

What call does the record list for CC1(C)CCC(CN2CCN(c3ccc(C(=O)NS(=O)(=O)c4ccc(NCC5CCOCC5)c([N+](=O)[O-])c4)c(Oc4cnc5[nH]ccc5c4)c3)CC2)=C(c2ccc(Cl)cc2)C1 + NC1CCC(NC2CC2c2ccccc2)CC1 ? inactive

Which outcome was entered for the molecule Nc1ncn(C2CC(O)C(CO)O2)c(=O)n1 (configuration not stated) + NC1CC1c1ccc(-c2cccc(O)c2)cc1 in this test? inactive
